- ASSAY SYSTEM: Pden_5119 (Paracoccus denitrificans, UniProt A1BCD5, R116A)
- Construct: C-terminal His6 tag kept, expressed in E. coli BL21(DE3)pLysS; subunit 20596 g/mol; dimer in solution; contains no cysteine
- Sequence (A1BCD5 entry or part of it R116A): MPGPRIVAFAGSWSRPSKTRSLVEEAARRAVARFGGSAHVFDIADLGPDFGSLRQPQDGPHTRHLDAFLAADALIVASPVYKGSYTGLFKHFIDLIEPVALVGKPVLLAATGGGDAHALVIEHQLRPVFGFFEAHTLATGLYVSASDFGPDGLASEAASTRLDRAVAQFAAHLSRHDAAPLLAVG
- TEST NAME: stopped-flow reduction of enzyme-bound FMN at […] nm, hyperbolic fit of kobs
- Type: biochemical
- DETAILS: anaerobic reductive half-reaction of enzyme-FMN complex; rapid-equilibrium binding step; 0.1 M sodium phosphate pH 7.3; 10 °C; read-out: KNADH
ASSAY ENDPOINT: pKd
Give bare numbers, as −log10 of the molar value.

Given the entry `NC(=O)C1=CN([C@@H]2O[C@H](COP(=O)(O)OP(=O)(O)OC[C@H]3O[C@@H](n4cnc5c(N)ncnc54)[C@H](O)[C@@H]3O)[C@@H](O)[C@H]2O)C=CC1` , what pKd was observed with Pden_5119 (Paracoccus denitrificans, UniProt A1BCD5, R116A)?
4.41

---

- ASSAY SYSTEM: Pden_5119 (Paracoccus denitrificans, UniProt A1BCD5, H117A)
- Construct: C-terminal His6 tag kept, expressed in E. coli BL21(DE3)pLysS; subunit 20596 g/mol; dimer in solution; contains no cysteine
- Sequence (A1BCD5 entry or part of it H117A): as the sequence (A1BCD5 entry or part of it R116A) above, with A116R, H117A counted along it
- TEST NAME: stopped-flow reduction of enzyme-bound FMN at […] nm, hyperbolic fit of kobs
- Type: biochemical
- DETAILS: anaerobic reductive half-reaction of enzyme-FMN complex; rapid-equilibrium binding step; 0.1 M sodium phosphate pH 7.3; 10 °C; read-out: KNADH
ASSAY ENDPOINT: pKd
Give bare numbers, as −log10 of the molar value.

Given NC(=O)C1=CN([C@@H]2O[C@H](COP(=O)(O)OP(=O)(O)OC[C@H]3O[C@@H](n4cnc5c(N)ncnc54)[C@H](O)[C@@H]3O)[C@@H](O)[C@H]2O)C=CC1 [NADH] , state its recorded pKd.
4.40

---

- ASSAY SYSTEM: Pden_5119 (Paracoccus denitrificans)
- Construct: C-terminal His6 tag kept, expressed in E. coli BL21(DE3)pLysS; subunit 20596 g/mol; dimer in solution; contains no cysteine
- TEST NAME: intrinsic protein fluorescence quenching titration
- Type: binding
- DETAILS: read-out: Kd^FMN
- From the text: intrinsic protein fluorescence quenching titration on Pden_5119
ASSAY ENDPOINT: Kd

Which Kd is reported for this molecule? `Cc1cc2nc3c(=O)[nH]c(=O)nc-3n(C[C@H](O)[C@H](O)[C@H](O)COP(=O)(O)O)c2cc1C`
3.8 µM

---

- ASSAY SYSTEM: Pden_5119 (Paracoccus denitrificans, UniProt A1BCD5, K82A)
- Construct: C-terminal His6 tag kept, expressed in E. coli BL21(DE3)pLysS; subunit 20596 g/mol; dimer in solution; contains no cysteine
- Sequence (A1BCD5 entry or part of it K82A): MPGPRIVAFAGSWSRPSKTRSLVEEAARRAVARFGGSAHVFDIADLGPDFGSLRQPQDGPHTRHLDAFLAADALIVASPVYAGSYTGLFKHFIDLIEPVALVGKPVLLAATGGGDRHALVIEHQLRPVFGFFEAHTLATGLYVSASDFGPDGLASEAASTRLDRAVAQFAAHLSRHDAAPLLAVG
- TEST NAME: stopped-flow reduction of enzyme-bound FMN at […] nm, hyperbolic fit of kobs
- Type: biochemical
- DETAILS: anaerobic reductive half-reaction of enzyme-FMN complex; rapid-equilibrium binding step; 0.1 M sodium phosphate pH 7.3; 10 °C; read-out: KNADH
ASSAY ENDPOINT: Kd (µM)
Give bare numbers, in µM.

Recorded Kd of NC(=O)C1=CN([C@@H]2O[C@H](COP(=O)(O)OP(=O)(O)OC[C@H]3O[C@@H](n4cnc5c(N)ncnc54)[C@H](O)[C@@H]3O)[C@@H](O)[C@H]2O)C=CC1 [NADH] , please.
53

Just for reference, paper PMC9963409 is where these values come from.
